These data points were gathered from patent US20190085024A1.

# collection of Ki values tested on Cat S (Homo sapiens)
# Sequence (P25774 115-331): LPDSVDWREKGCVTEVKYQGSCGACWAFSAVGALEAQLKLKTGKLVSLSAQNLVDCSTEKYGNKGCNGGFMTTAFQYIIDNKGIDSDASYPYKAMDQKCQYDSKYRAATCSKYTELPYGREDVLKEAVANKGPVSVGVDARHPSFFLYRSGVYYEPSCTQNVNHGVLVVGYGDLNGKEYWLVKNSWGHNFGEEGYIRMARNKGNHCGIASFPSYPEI

compound	quantity_unit	Ki
CC(NC(=O)C(Cc1ccccc1)NC(=O)Cc1ccccc1)C(=O)C(=O)NC(Cc1ccccc1)C(=O)NC(Cc1ccc2ccccc2c1)C(N)=O (stereo not shown) [PHELIX215]	nM	0.48
CC(C)CC(NC(=O)OCc1ccccc1)C(=O)NC(C)C(=O)C(=O)N1CC(C(=O)NC(Cc2ccccc2)C(N)=O)C1 (stereo not shown)	nM	2.04
CCCCC(NC(=O)C(=O)C(C)NC(=O)C(Cc1ccccc1)NC(=O)Cc1ccccc1)C(=O)NC(C)(C)C(N)=O (stereo not shown)	nM	555
CC(NC(=O)C(Cc1ccccc1)NC(=O)Cc1cccc(F)c1)C(=O)C(=O)NC(Cc1ccccc1)C(=O)NC(C)(C)C(N)=O (stereo not shown)	nM	16.3
CCCCC(=O)NC(Cc1ccccc1)C(=O)NC(C)C(=O)C(=O)NC(Cc1ccccc1)C(=O)NC(C)(C)C(N)=O (stereo not shown)	nM	260
CC[C@H](C)[C@H](NC(=O)C(=O)C(Cc1ccccc1)NC(=O)C(Cc1ccccc1)NC(=O)Cc1ccccc1)C(=O)N1CCCC1C(N)=O (stereo partly shown)	nM	0.44
CC(C)CC(NC(=O)OCc1ccccc1)C(=O)NC(C)C(=O)C(=O)NCC(=O)NC(Cc1ccccc1)C(=O)NCCc1ccccc1 (stereo not shown)	nM	20.3
CC(NC(=O)C(Cc1ccccc1)NC(=O)c1cccc(F)c1)C(=O)C(=O)NC(Cc1ccccc1)C(=O)NC(C)(C)C(N)=O (stereo not shown)	nM	17.7
CC(NC(=O)C(Cc1ccccc1F)NC(=O)Cc1ccccc1)C(=O)C(=O)NC(Cc1ccccc1)C(=O)NC(C)(C)C(N)=O (stereo not shown)	nM	2.6
CC(NC(=O)C(Cc1ccccc1)NC(=O)Cc1ccccc1)C(=O)C(=O)NC(Cc1ccccc1)C(=O)NC(Cc1ccc2ccccc2c1)C(N)=O (stereo not shown) [PHELIX220]	nM	0.22
CC(C)CC(NC(=O)C(=O)C(C)NC(=O)C(Cc1ccccc1)NC(=O)Cc1ccccc1)C(=O)NC(C)(C)C(N)=O (stereo not shown)	nM	39.8
CC(NC(=O)C(Cc1ccc2ccccc2c1)NC(=O)Cc1ccccc1)C(=O)C(=O)NC(Cc1ccccc1)C(=O)NC(C)(C)C(N)=O (stereo not shown)	nM	3.96
Cc1cccc(CC(=O)NC(Cc2ccccc2)C(=O)NC(C)C(=O)C(=O)NC(Cc2ccccc2)C(=O)NC(C)(C)C(N)=O)c1 (stereo not shown)	nM	8.12
